Target: Full length LIGHT A190S on HEK293FF cells (Homo sapiens (Human), UniProt O43557 1-240)
Sequence (O43557 whole entry A190S): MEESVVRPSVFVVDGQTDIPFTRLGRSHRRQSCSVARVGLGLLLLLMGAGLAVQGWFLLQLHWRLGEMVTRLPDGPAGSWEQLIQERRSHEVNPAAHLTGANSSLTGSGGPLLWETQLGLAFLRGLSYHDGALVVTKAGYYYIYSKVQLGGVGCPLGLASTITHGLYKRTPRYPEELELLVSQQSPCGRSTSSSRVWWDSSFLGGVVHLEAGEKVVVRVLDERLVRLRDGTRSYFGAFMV
Assay: flow cytometry, HEK293FF, mAb at EC50
Description: The day of transfection the cells were seeded in a 24-well plate at 0.6×10⁶ cells/well. […] The cells were then washed as above, resuspended in 100 μl of FACS buffer and binding of the antibodies to the constructs was measured using flow cytometry and a total of 10,000 cells were acquired for each sample. […]
Readout: % of WT binding (%)
Just the number in %, nothing appended.

Solved entries (count: 3):
# Binder, Measurement unit, % of WT binding
measured = [
    ("3C10 chimeric IgG4 mAb (antibody, V domains shown, Chimeric human IgG4 (S-to-P, L-to-E) with human CL, as m1; also called Parental 3C10) VH: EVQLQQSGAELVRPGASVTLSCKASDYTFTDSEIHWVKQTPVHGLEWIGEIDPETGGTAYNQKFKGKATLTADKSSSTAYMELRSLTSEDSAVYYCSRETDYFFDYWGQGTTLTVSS VL: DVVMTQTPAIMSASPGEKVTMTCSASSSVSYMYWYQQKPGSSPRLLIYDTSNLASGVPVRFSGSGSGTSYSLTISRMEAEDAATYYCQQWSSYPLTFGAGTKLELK", "%", 40),
    ("3B04 chimeric IgG4 mAb (antibody, V domains shown, also called Parental 3B04) VH: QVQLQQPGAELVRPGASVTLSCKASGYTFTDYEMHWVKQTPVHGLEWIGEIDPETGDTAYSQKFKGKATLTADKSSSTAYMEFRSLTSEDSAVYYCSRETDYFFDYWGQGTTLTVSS VL: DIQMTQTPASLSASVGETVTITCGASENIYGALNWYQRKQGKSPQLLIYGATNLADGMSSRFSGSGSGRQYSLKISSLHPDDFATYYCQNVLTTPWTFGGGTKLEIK", "%", 68),
    ("3E09 chimeric IgG4 mAb (antibody, V domains shown, Chimeric human IgG4 (S-to-P, L-to-E) with human CL, as m1; also called Parental 3E09) VH: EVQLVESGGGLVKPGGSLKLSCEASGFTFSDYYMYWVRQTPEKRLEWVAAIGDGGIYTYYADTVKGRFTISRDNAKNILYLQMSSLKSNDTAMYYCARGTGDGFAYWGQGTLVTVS VL: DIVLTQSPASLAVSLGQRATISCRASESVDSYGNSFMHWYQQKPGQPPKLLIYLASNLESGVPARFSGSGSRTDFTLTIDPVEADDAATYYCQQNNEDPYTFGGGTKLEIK", "%", 97),
]

Field request: % of WT binding | item: 2B11 chimeric IgG4 mAb (antibody, V domains shown, Chimeric human IgG4 (S-to-P, L-to-E) with human CL, as m1; Often misprinted 2B111; also called Parental 2B11; 2B111) VH: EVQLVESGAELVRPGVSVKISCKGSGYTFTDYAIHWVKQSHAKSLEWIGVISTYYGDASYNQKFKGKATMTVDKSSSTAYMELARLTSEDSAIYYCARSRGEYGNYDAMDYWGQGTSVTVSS VL: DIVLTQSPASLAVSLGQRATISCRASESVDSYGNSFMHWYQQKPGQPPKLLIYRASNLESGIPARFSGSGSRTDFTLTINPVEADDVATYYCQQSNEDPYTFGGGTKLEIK
52
